Test: Tolerability / maximum tolerated dosage
Details: both sexes, mouse, in vivo
value_type: MTD (mg/kg)
Note: unit mg/kg is implicit; provide only the numeric part.

Q. Would you kindly share the measured MTD for COc1cc(/C=C/c2cc(O)c3c(c2)C[C@@H]2C(C)(C)[C@H](O)CC[C@@]2(C)O3)cc(O)c1/C=C/c1c(C)noc1C [TTI-7106] ?
A. 40

These data points were gathered from patent US12427133B2.
